FYI, the data here is from patent US20050158818A1.

Biological target: HisVAC cephalosporin C acylase (Pseudomonas N176 derived, parent Seq. ID #1) variant A215F
Assay: Product inhibition of mutant A215F
Format: biochemical
Settings: substrate Gl-7-ACA
pKi: −log10 of the molar value.
property measured: pKi

INSERT INTO assay_data (input_smiles, measured_number) VALUES
  ('CC(=O)OCC1=C(C(=O)O)N2C(=O)[C@@H](N)[C@H]2SC1', 2.33),
  ('O=C(O)CCCC(=O)O', 2.68);
